Data credit: ChEMBL document CHEMBL3988442

Biological target: Sialic acid-binding Ig-like lectin 9 (Homo sapiens) (UniProt Q9Y336)
Sequence (Q9Y336 whole entry): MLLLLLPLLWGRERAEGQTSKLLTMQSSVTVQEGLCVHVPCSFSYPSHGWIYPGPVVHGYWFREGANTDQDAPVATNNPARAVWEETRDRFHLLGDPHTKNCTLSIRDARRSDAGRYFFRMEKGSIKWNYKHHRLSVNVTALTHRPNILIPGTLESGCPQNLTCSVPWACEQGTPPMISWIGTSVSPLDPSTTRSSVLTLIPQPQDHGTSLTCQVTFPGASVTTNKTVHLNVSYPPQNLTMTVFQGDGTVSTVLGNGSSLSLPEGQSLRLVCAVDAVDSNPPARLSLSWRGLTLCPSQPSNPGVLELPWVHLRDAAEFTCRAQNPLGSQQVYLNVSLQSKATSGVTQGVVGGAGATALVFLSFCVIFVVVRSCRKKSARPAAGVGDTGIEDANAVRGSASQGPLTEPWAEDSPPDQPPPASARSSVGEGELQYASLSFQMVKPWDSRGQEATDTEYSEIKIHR
Assay: Hs-Siglec9 ALPHAscreen SOP 20170721
Design: scale not given: direction of the effect not stated beside the values
Settings: 10 µM
I'd be grateful if you could share measured Percent Effect for these entries.
Give bare numbers, in %.

Cc1cc(C(F)(F)F)nn1C(C)C(=O)Nc1ccncc1 (stereo unspecified)    -5.25

Okay, here is my list. What is Percent Effect for each of these?
1. Cc1cc(C)c(CNC(=O)N2CCCC2C(N)=O)c(=O)[nH]1 (stereo unspecified)
2. Cc1cn2c(n1)CCC(NC(=O)c1ccc(CS(C)(=O)=O)cc1)C2 (stereo unspecified)
3. CN(C)CC(=O)N1CCCC2(CCC(=O)N(CCc3c[nH]cn3)C2)C1 (stereo unspecified)
4. O=C(c1ccsc1)N1CCc2c(CNc3ncccn3)n[nH]c2C1

Outgoing:
3.83
4.15
10.6
1.51

Incoming: Dear colleague, please send me the reported Percent Effect for CC(=O)N1CCCN(C(=O)NCCc2ccc(Cl)s2)CC1 when you can.
Outgoing: 0.11
